Target: feline FcRn complex (FcRn-α subunit and β-microglobulin), biotin labeled (feline)
Experiment: SPR, pH 7.4
ASSAY ENDPOINT: Kd (nM)
Give the value, in units of nM, as a plain number.

{"BINDER": "feline IgG1a Q311H (antibody, part only; not given: Variable domains, not shown: another chain or arm of the molecule) constant: ASTTAPSVFPLAPSCGTTSGATVALACLVLGYFPEPVTVSWNSGALTSGVHTFPAVLQASGLYSLSSMVTVPSSRWLSDTFTCNVAHPPSNTKVDKTVRKTDHPPGPKPCDCPKCPPPEMLGGPSIFIFPPKPKDTLSISRTPEVTCLVVDLGPDDSDVQITWFVDNTQVYTAKTSPREEQFNSTYRVVSVLPILHHDWLKGKEFKCKVNSKSLPSPIERTISKAKGQPHEPQVYVLPPAQEELSRNKVSVTCLIKSFHPPDIAVEWEITGQPEPENNYRTTPPQLDSDGTYFVYSKLSVDRSHWQRGNTYTCSVSHEALHSHHTQKSLTQSPGK", "Kd (nM)": 93.7}

# input Quickly give me recorded Kd for feline IgG1a S252R (antibody, part only; not given: Variable domains, not shown: another chain or arm of the molecule) constant: ASTTAPSVFPLAPSCGTTSGATVALACLVLGYFPEPVTVSWNSGALTSGVHTFPAVLQASGLYSLSSMVTVPSSRWLSDTFTCNVAHPPSNTKVDKTVRKTDHPPGPKPCDCPKCPPPEMLGGPSIFIFPPKPKDTLRISRTPEVTCLVVDLGPDDSDVQITWFVDNTQVYTAKTSPREEQFNSTYRVVSVLPILHQDWLKGKEFKCKVNSKSLPSPIERTISKAKGQPHEPQVYVLPPAQEELSRNKVSVTCLIKSFHPPDIAVEWEITGQPEPENNYRTTPPQLDSDGTYFVYSKLSVDRSHWQRGNTYTCSVSHEALHSHHTQKSLTQSPGK
# output 5.06

# input Quickly give me recorded Kd for feline IgG1a Q311Y (antibody, part only; not given: Variable domains, not shown: another chain or arm of the molecule) constant: ASTTAPSVFPLAPSCGTTSGATVALACLVLGYFPEPVTVSWNSGALTSGVHTFPAVLQASGLYSLSSMVTVPSSRWLSDTFTCNVAHPPSNTKVDKTVRKTDHPPGPKPCDCPKCPPPEMLGGPSIFIFPPKPKDTLSISRTPEVTCLVVDLGPDDSDVQITWFVDNTQVYTAKTSPREEQFNSTYRVVSVLPILHYDWLKGKEFKCKVNSKSLPSPIERTISKAKGQPHEPQVYVLPPAQEELSRNKVSVTCLIKSFHPPDIAVEWEITGQPEPENNYRTTPPQLDSDGTYFVYSKLSVDRSHWQRGNTYTCSVSHEALHSHHTQKSLTQSPGK
# output 41.4

# input Quickly give me recorded Kd for feline IgG1a D312R (antibody, part only; not given: Variable domains, not shown: another chain or arm of the molecule) constant: ASTTAPSVFPLAPSCGTTSGATVALACLVLGYFPEPVTVSWNSGALTSGVHTFPAVLQASGLYSLSSMVTVPSSRWLSDTFTCNVAHPPSNTKVDKTVRKTDHPPGPKPCDCPKCPPPEMLGGPSIFIFPPKPKDTLSISRTPEVTCLVVDLGPDDSDVQITWFVDNTQVYTAKTSPREEQFNSTYRVVSVLPILHQRWLKGKEFKCKVNSKSLPSPIERTISKAKGQPHEPQVYVLPPAQEELSRNKVSVTCLIKSFHPPDIAVEWEITGQPEPENNYRTTPPQLDSDGTYFVYSKLSVDRSHWQRGNTYTCSVSHEALHSHHTQKSLTQSPGK
# output 25
